# ASSAY_SUMMARY: Dissociation constant, pKa of the compound
# Format: physicochemical
MEASURED_PROPERTY: pKa

Solved entries:
O=c1c2ccccc2n(CCCN(CCO)CCO)c2ccc(Cl)cc12
4.8
O=c1c2ccccc2n(CCCN2CCOCC2)c2ccc(Cl)cc12
4.87
O=c1c2ccccc2n(CCCCN(CCO)CCO)c2ccc(Cl)cc12
4.8
O=c1c2ccccc2n(CCCCN2CCCC2)c2ccc(Cl)cc12
5.28
O=c1c2ccccc2n(CCCCN2CCN(CCO)CC2)c2ccc(Cl)cc12
5.26
O=c1c2ccccc2n(CCCN2CCN(CCO)CC2)c2ccc(Cl)cc12
5.26

Please fill in: pKa reported for `CN1CCN(CCCn2c3ccccc3c(=O)c3cc(Cl)ccc32)CC1` = 5.28
